- STUDY_TARGET: T1, Histidine-tagged human CD40 protein (hCD40-His) (human, UniProt P25942 21-193)
- T1 construct: not shown: histidine tag
- T1 sequence (P25942 21-193 limits assumed): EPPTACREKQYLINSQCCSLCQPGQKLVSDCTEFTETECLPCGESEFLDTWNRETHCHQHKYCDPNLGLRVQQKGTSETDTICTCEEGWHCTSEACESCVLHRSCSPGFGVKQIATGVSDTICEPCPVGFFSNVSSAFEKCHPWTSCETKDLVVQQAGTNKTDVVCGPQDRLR
- ASSAY_INFO: SPR, Biacore T200; antibody on Protein A chip, hCD40-His injected; 1:1 fit
MEASUREMENT_LABEL: koff (s⁻¹)
Quick note: give the figure in s⁻¹, leave out the unit.

Lookup: Need koff of 7F10-H2K3-IgG4 (antibody, V domains shown, Humanized) VH: EVQLVESGGGLVQPGGSLRLSCATSGFTFSDYYMYWVRQAPGKRLEWVAYISYGGDSTFYPDTVRGRFTISRDNAKNSLYLQMSSLKAEDTAVYYCARPAPSAHSYYLDYWGQGTLLTVSS VL: DIQMTQSTSSLSASVGDRVTITCRASQDISNYLNWYQQKPGGAVKLLIYYTSRLHSGLPSRFSGSGSGTDYTLTISSLQQEDIATYYCQQGKTLPFTFASGTKLEIK , thanks.
Found: 0.0313

Lookup: Field entry: 6A7-H4K3-IgG4 (antibody, V domains shown, Humanized) VH: QVQLVQSGAEVKKPGASVKLSCKASGYTFISYYIYWVKQAPGQGLEWIGGINPRNGGTNFNEKFKSRATLTVDTSISTAYMELSRLRSEDTAVYYCTRHGNGVYWGQGTTLTVSS VL: DVVMTQSPLSLPVTLGDPASISCRSSQSLLHSNGNTYLHWYQQRPGQSPNHLIYQVSNRFSGVPDRFSGSGSGTDFTLKISRVEAEDVGVYFCSQTTHVPWTFGGGTKLEIK
Found: 0.000373

Lookup: Field entry: 4H6-H4K2-IgG4 (antibody, V domains shown, Humanized) VH: EVQLQESGPGLVKPSQTLSLTCTVSGDSVSSGYWNWIRKFPGKKLEYMGFISYSGSTYYTPSLKSRITISRDTSKNQFSLKLSSVTAADTAVYFCARFRRYDDGVDYWGQGTLVTVSS VL: DIQMTQSPSAMSASVGDRVTITCRASHEISGYLSWIQQKPGGTIKRLINAASTLASGVPSRFSGSRSGTEFTLTISSLQPEDFADYYCLQYSSYPWTFGGGTKLEIK
Found: 0.0191
